# tested.target: Poly [ADP-ribose] polymerase 2 (Homo sapiens)
# Sequence (Q9UGN5 whole entry): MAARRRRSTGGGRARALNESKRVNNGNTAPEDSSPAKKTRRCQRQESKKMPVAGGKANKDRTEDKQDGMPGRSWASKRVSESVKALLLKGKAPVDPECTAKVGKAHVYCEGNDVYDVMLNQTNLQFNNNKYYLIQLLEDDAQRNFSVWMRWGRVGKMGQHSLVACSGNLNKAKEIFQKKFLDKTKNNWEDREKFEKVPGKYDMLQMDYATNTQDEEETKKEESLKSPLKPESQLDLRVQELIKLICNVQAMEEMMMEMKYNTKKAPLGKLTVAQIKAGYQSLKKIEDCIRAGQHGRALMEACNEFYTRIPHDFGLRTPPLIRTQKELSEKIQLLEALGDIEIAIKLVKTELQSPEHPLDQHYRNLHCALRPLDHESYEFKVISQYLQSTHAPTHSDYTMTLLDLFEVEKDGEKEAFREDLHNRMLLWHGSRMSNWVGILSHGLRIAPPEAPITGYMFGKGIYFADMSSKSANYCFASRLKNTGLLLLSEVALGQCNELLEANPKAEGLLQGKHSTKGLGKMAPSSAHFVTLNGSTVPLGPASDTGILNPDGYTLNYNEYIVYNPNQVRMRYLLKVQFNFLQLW
# measurement.protocol: Inhibition of PARP-2 (unknown origin) binding to DNA assessed as DNA trapping activity
assay.readout: pIC50
Keep in mind that pIC50 stands for -log10 of concentration in molar terms.

Q) Which pIC50 is reported with Poly [ADP-ribose] polymerase 2 (Homo sapiens) for this entry: "CCc1cc2ncc(CN3CCN(c4ccc5nc(C(F)(F)F)[nH]c5n4)CC3)cc2[nH]c1=O" ?
A) 5.85

Q) Request - read-out pIC50 | tested on Poly [ADP-ribose] polymerase 2 (Homo sapiens) | molecule "CCc1cc2ncc(CN3CCN(c4cc5c(cn4)NC(=O)CC5)CC3)cc2[nH]c1=O"
A) 6.78

Q) # returns recorded pIC50 (system: Poly [ADP-ribose] polymerase 2 (Homo sapiens)) for "CCc1cc2ncc(CN3CCN(c4ccc(C(=O)NC)c5nccn45)CC3)cc2[nH]c1=O"
A) 5.81

Q) Item: "CCc1cc2ncc(CN3CC(Nc4ccc(C(=O)NC)nc4)C3)cc2[nH]c1=O" Test system: Poly [ADP-ribose] polymerase 2 (Homo sapiens) Read-out: pIC50 Value: ?
A) 4.92

Q) Test system Poly [ADP-ribose] polymerase 2 (Homo sapiens); read-out pIC50; what value for "CCc1cc2ncc(CN3CCC(Nc4ccc(C(=O)NC)nc4)CC3)cc2[nH]c1=O" ?
A) 5.52

Q) Please provide the recorded pIC50 for "CCc1cc2ncc(CN3CCN(c4cc5cccc(C(=O)NC)c5cn4)CC3)cc2[nH]c1=O" , tested on Poly [ADP-ribose] polymerase 2 (Homo sapiens).
A) 5.53

Q) Poly [ADP-ribose] polymerase 2 (Homo sapiens) / pIC50 / "CCc1cc2ncc(CN3C[C@@H]4C[C@H]3CN4c3ccc(C(=O)NC)nc3)cc2[nH]c1=O" : value?
A) 4.42

Q) Return pIC50 measured with Poly [ADP-ribose] polymerase 2 (Homo sapiens) given this molecule: "CCc1cc2ncc(CN3CC[C@H](Nc4ccc(C(=O)NC)nc4)C3)cc2[nH]c1=O"
A) 5.38

Q) Please provide the recorded pIC50 for "CCc1cc2ncc(CN3CCN(c4ccc5cc[nH]c5n4)CC3)cc2[nH]c1=O" , tested on Poly [ADP-ribose] polymerase 2 (Homo sapiens).
A) 6.94

Taken from ChEMBL document CHEMBL5150037.
